test: Cytotoxicity against human Hep2 cells assessed as reduction in cell viability incubated for 24 hrs by trypan blue dye exclusion assay; format: cell-based; settings: HEp-2 cells
observed_property: CC50 at 24 h (µg/mL)
Numbers only; they are read as µg/mL.

Please review the following examples before continuing.
{"molecule": "CCCC/C(CC)=N\\N=C1/NC(=O)CS1", "unit_spec": "µg/mL", "CC50 at 24 h": 46.4}
{"molecule": "O=C1CSC(NN=C2CCCC2)=N1", "unit_spec": "µg/mL", "CC50 at 24 h": 22.2}
{"molecule": "CC1CC/C(=N/N=C2\\NC(=O)CS2)C1 (centres undefined)", "unit_spec": "µg/mL", "CC50 at 24 h": 50.8}
{"molecule": "CCCCC/C(C)=N\\N=C1/NC(=O)CS1", "unit_spec": "µg/mL", "CC50 at 24 h": 71.8}

Quick one: CC50 at 24 h of `Clc1ccccc1C(c1ccccc1)(c1ccccc1)n1ccnc1` ?
38.8

Quick one: CC50 at 24 h of CC1CCC/C1=N/N=C1\NC(=O)CS1 (centres undefined) ?
52.8

Quick one: CC50 at 24 h of `O=C1CS/C(=N/N=C2CCCCC2)N1Cc1ccccc1` ?
22.8

Quick one: CC50 at 24 h of CC1CCCC/C1=N/N=C1\NC(=O)CS1 (centres undefined) ?
52.6

Quick one: CC50 at 24 h of `C/C(=N/N=C1\NC(=O)CS1)c1ccccn1` ?
56.8

* * *

We begin with a simple list: items and their reported selectivity ratio.
experiment: Selectivity index, ratio of CC50 for human Hep2 cells to MIC for Candida albicans clinical isolates; type: toxicity; details: HEp-2 cells, read-out: Selectivity Index
Lab note: write the figure by itself, no unit.

Please review the following examples before continuing.
{"compound": "O=C1CS/C(=N/N=C2CCCCC2)N1Cc1ccccc1", "numeric_value": 11}
{"compound": "C/C(=N/N=C1/SCC(=O)N1Cc1ccccc1)c1cccnc1", "numeric_value": 18.5}
{"compound": "CCC(CC)=N/N=C1\\NC(=O)CS1", "numeric_value": 24.5}
{"compound": "CCCCC/C(C)=N\\N=C1/NC(=O)CS1", "numeric_value": 35.5}
{"compound": "CCC/C(C)=N\\N=C1/NC(=O)CS1", "numeric_value": 46.5}

Quick one: selectivity ratio of `Clc1ccccc1C(c1ccccc1)(c1ccccc1)n1ccnc1` ?
19

Quick one: selectivity ratio of `O=C1CSC(NN=C2CCCC2)=N1` ?
11.1

Quick one: selectivity ratio of CC1CCCC/C1=N/N=C1\NC(=O)CS1 (centres undefined) ?
26

Quick one: selectivity ratio of `C/C(=N/N=C1\NC(=O)CS1)c1ccccn1` ?
28

* * *

We begin with a simple list: items and their reported CC50 at 24 h.
assay: Cytotoxicity against human Hep2 cells assessed as reduction in cell viability incubated for 24 hrs by trypan blue dye exclusion assay; assay type: cell-based; settings: HEp-2 cells
Numbers only; they are read as µg/mL.

Please review the following examples before continuing.
{"mol_smiles": "CC(C)=N/N=C1\\NC(=O)CS1", "numeric_value": 68.4}
{"mol_smiles": "CCC/C(C)=N\\N=C1/NC(=O)CS1", "numeric_value": 93.4}
{"mol_smiles": "C/C(=N/N=C1/SCC(=O)N1Cc1ccccc1)c1cccnc1", "numeric_value": 37.4}

Query molecule follows.
Quick one: CC50 at 24 h of `CCC(CC)=N/N=C1\NC(=O)CS1` ?
49.2

Data origin, for the record: ChEMBL document CHEMBL4190362
